System: Fibroblast
assay_info: Multiplex assay against human fibroblast
Format: toxicity, cell-based
applied_conditions: 24 h, 1 µM, compound concentration 1 uM, replicate 2
Population Normal (%) listing for selected compounds.
Form entry: value (%) — number only.

// worked examples, Population Normal (%) included
The recorded Population Normal (%) for entry Cl.N=C(N)NC(=O)Cc1c(Cl)cccc1Cl [GUANFACINE HYDROCHLORIDE] equals 93

GET /value?item= CC(C)(C)c1cc(NC(=O)Nc2ccc(-c3cn4c(n3)sc3cc(OCCN5CCOCC5)ccc34)cc2)no1 [QUIZARTINIB] &field=Population Normal (%) returns 96

Per the record, N#Cc1c(Oc2cccc(OS(=O)(=O)CCCC(F)(F)F)c2)cccc1C(F)(F)F has Population Normal (%) of 96

Reported Population Normal (%) ( C[C@H](N)COC(=O)[C@@H](CCCCN)NC(=O)Cc1c(-c2ccc3ccccc3c2)[nH]c2c1ccc1ccccc12 ) = 92

Sample Cc1sc2c(c1C)C(c1ccc(Cl)cc1)=N[C@@H](CC(=O)NCCCCCCCCNC(=O)COc1cccc3c1C(=O)N(C1CCC(=O)NC1=O)C3=O)c1nnc(C)n1-2 (stereo partly drawn) ; Population Normal (%) observed: 96

Population Normal (%) for Br.CS(=O)(=O)Nc1c(O)ccc2c1CCCC2C1=NCCN1 (stereo not drawn) is 92

---
Record COc1cccc2c1c(NS(=O)(=O)c1ccc(Cl)s1)nn2Cc1cccc(CNC(=O)C(C)(C)O)c1 . Reported Population Normal (%): 98

Memo: CCc1cc2cc(NS(=O)(=O)c3ccc(C#N)cc3)ccc2n(CC)c1=O , reported Population Normal (%): 93

---

Tested on: Fibroblast
assay_info: Multiplex assay against human fibroblast
Assay type: toxicity, cell-based
applied_conditions: 12 h, 1 µM, compound concentration 1 uM, replicate 2
readout_label: Population Mitotic Cells (%)

Known Population Mitotic Cells (%) results, listed for orientation:
The molecule listed as COc1cccc2c1c(NS(=O)(=O)c1ccc(Cl)s1)nn2Cc1cccc(CNC(=O)C(C)(C)O)c1 shows Population Mitotic Cells (%) equal to 66%

Short answer for Cc1noc(-c2ccc(-c3ccc(CC(=O)O)cc3)cc2)c1NC(=O)O[C@H](C)c1ccccc1Cl : Population Mitotic Cells (%) was 41%

---
Notebook: O=C(CCCc1ccccc1)Nc1nc2ccccc2c(=O)s1 , Population Mitotic Cells (%) read as 65%

Summary for this molecule, CC[C@@H](C)Nc1nc(C)nc2c(-c3ccc(OC)nc3C)c(C)nn12 : Population Mitotic Cells (%) is 75%

---

Tested on: HEK-293T
assay_info: Multiplex assay against HEK293T
Type: toxicity, cell-based
applied_conditions: human, 12 h, 1 µM, compound concentration 1 uM, replicate 2
readout_label: Total Cell Count

Kindly note: HEK-293T, O=C(NCCN1CCC(n2c(=O)[nH]c3cc(Cl)ccc32)CC1)c1ccc(F)cc1 [HALOPEMIDE] , Total Cell Count value reported: 373

Kindly note: HEK-293T, NCCc1cn(S(=O)(=O)c2c(Cl)nc3sccn23)c2ccccc12.O=C(O)C(=O)O , Total Cell Count value reported: 316

# value of Total Cell Count, HEK-293T, item CC(C)(C)c1cc(NC(=O)Nc2ccc(-c3cn4c(n3)sc3cc(OCCN5CCOCC5)ccc34)cc2)no1 = 345

Tested on HEK-293T: CC(=O)Nc1cccc2c1c(Sc1ccc(Cl)cc1)c(C)n2CC(=O)O . Observed Total Cell Count: 314

Summary line: CN(C)C(=O)Cn1cc(-c2ccc(-c3cncc4ccccc34)cc2)cn1 , HEK-293T, reported Total Cell Count = 337

Reading of Total Cell Count for CCc1cc2cc(NS(=O)(=O)c3ccc(C#N)cc3)ccc2n(CC)c1=O with HEK-293T: 338

New cases:
The reported HEK-293T Total Cell Count of O=C(CCCc1ccccc1)Nc1nc2ccccc2c(=O)s1 is 267

Given the molecule N#Cc1c(Oc2cccc(OS(=O)(=O)CCCC(F)(F)F)c2)cccc1C(F)(F)F and test system HEK-293T, the measured Total Cell Count is 349

Entry CCCCC1=NC2(CCCC2)C(=O)N1Cc1ccc(-c2ccccc2-c2nnn[nH]2)cc1 , HEK-293T data, Total Cell Count value: 353

---

Listed compounds paired with reported Population Pyknosed Nuclei (%)
System: U2OS
assay_info: Multiplex assay against U2OS
Assay type: toxicity, cell-based
applied_conditions: human, 12 h, 10 µM, compound concentration 10 uM, replicate 1
Provide the reading as a plain figure in %.

Population Pyknosed Nuclei (%) reading for CC(/C=C1\SC(=S)N(CCCC(=O)Nc2ccc(C(=O)O)c(O)c2)C1=O)=C\c1ccccc1 : 9

Notebook: N#Cc1c(Oc2cccc(OS(=O)(=O)CCCC(F)(F)F)c2)cccc1C(F)(F)F , Population Pyknosed Nuclei (%) read as 8

Looking up COc1cccc2c1c(NS(=O)(=O)c1ccc(Cl)s1)nn2Cc1cccc(CNC(=O)C(C)(C)O)c1 , I found its Population Pyknosed Nuclei (%) recorded as 8

For record Cc1noc(-c2ccc(-c3ccc(CC(=O)O)cc3)cc2)c1NC(=O)O[C@H](C)c1ccccc1Cl the listed Population Pyknosed Nuclei (%) is 9

// field: Population Pyknosed Nuclei (%); key: Cl.NCCc1ccc(O)c(O)c1 [DOPAMINE HYDROCHLORIDE] ; value = 12

Further cases:
Query CN1CCN(c2cc(-c3ccccc3)nc(N)n2)CC1 yields Population Pyknosed Nuclei (%) of 6

The compound listed as O=C(NCCN1CCC(n2c(=O)[nH]c3cc(Cl)ccc32)CC1)c1ccc(F)cc1 [HALOPEMIDE] shows Population Pyknosed Nuclei (%) equal to 15

Reported Population Pyknosed Nuclei (%) ( COc1ccccc1N1CCN(C[C@@H](C(=O)NC(C)(C)C)c2ccccc2)CC1.Cl.Cl ) = 14

Population Pyknosed Nuclei (%) for CC[C@@H](C)Nc1nc(C)nc2c(-c3ccc(OC)nc3C)c(C)nn12 is 8

// sample CN[C@@H](C)C(=O)N[C@H](C(=O)N1CCC[C@H]1C(=O)Nc1snnc1-c1ccccc1)C1CCCCC1 , its Population Pyknosed Nuclei (%) was 16

response.value for CC(C)(C)c1cc(NC(=O)Nc2ccc(-c3cn4c(n3)sc3cc(OCCN5CCOCC5)ccc34)cc2)no1 (field: Population Pyknosed Nuclei (%)) = 21

Measured Population Pyknosed Nuclei (%) of Cl.N=C(N)NC(=O)Cc1c(Cl)cccc1Cl [GUANFACINE HYDROCHLORIDE] : 11

Population Pyknosed Nuclei (%) recorded for this compound, C[C@H](N)COC(=O)[C@@H](CCCCN)NC(=O)Cc1c(-c2ccc3ccccc3c2)[nH]c2c1ccc1ccccc12 , is 7

Value of measured Population Pyknosed Nuclei (%) for the entry Cc1cnc(-c2cc(N3CCN(C(=O)CCS(C)(=O)=O)CC3)ncc2Cl)c(C)c1 : 8

Memo: CCCCCC(O)/C=C/[C@H]1C(=O)CC(O)C1C/C=C\CCCC(=O)O (stereo not given in full) , reported Population Pyknosed Nuclei (%): 7

---

Tested on: U2OS
assay_info: Multiplex assay against U2OS
Format: toxicity, cell-based
applied_conditions: human, 24 h, 1 µM, compound concentration 1 uM, replicate 2
Class (by Population Pyknosed Nuclei (%)) -- lower bin: < 7%; middle bin: ≥ 7% and < 10%; upper bin: ≥ 10%

Here are 3 compounds together with their reported answers.
Lookup: Which class does CN1CCN(c2cc(-c3ccccc3)nc(N)n2)CC1 fall in?
Found: lower bin

Lookup: Please report the category associated with CC(C)c1noc(N2CCC(COc3ccc(-c4ccc(S(C)(=O)=O)cc4)nc3)CC2)n1 , nothing else.
Found: lower bin

Lookup: Record CC(C)COc1ccc(CNC(=O)N(Cc2ccc(F)cc2)C2CCN(C)CC2)cc1 — which class?
Found: middle bin

Others:
Lookup: State the band of CC(=O)Nc1cccc2c1c(Sc1ccc(Cl)cc1)c(C)n2CC(=O)O
Found: lower bin

Lookup: Kindly state the category for this compound: Cc1cccc(NC(=O)CN2CCC(c3ccccn3)CC2)c1.Cl.Cl
Found: upper bin

Lookup: Kindly state the category for this compound: CCCCC(=O)N(Cc1ccc(-c2ccccc2-c2nnn[nH]2)cc1)[C@H](C(=O)O)C(C)C
Found: upper bin

Lookup: Given CC(C)(C)c1cc(NC(=O)Nc2ccc(-c3cn4c(n3)sc3cc(OCCN5CCOCC5)ccc34)cc2)no1 , name the class its Population Pyknosed Nuclei (%) places it in.
Found: upper bin

Lookup: Exam item: assign O=C1[C@H](Cc2ccc(O)cc2)N2C(=O)CCN(C(=O)NCc3ccccc3)[C@H]2CN1Cc1cccc2ccccc12 to the correct category.
Found: upper bin

Lookup: Categorize the following entry: CN[C@@H](C)C(=O)N[C@H](C(=O)N1CCC[C@H]1C(=O)Nc1snnc1-c1ccccc1)C1CCCCC1
Found: upper bin

Lookup: # bin lookup: classify C[C@H](N)COC(=O)[C@@H](CCCCN)NC(=O)Cc1c(-c2ccc3ccccc3c2)[nH]c2c1ccc1ccccc12 by its Population Pyknosed Nuclei (%)
Found: lower bin

Lookup: Please classify: N#Cc1cc(F)cc(-c2nc(-c3ccc(F)cn3)no2)c1
Found: middle bin

Lookup: Record NCCc1cn(S(=O)(=O)c2c(Cl)nc3sccn23)c2ccccc12.O=C(O)C(=O)O — which class?
Found: middle bin

Lookup: The entry to classify is COc1cccc2c1c(NS(=O)(=O)c1ccc(Cl)s1)nn2Cc1cccc(CNC(=O)C(C)(C)O)c1 ; which class holds it?
Found: lower bin
